- system: MATE1 (Homo sapiens)
- Sequence (Q96FL8 whole entry): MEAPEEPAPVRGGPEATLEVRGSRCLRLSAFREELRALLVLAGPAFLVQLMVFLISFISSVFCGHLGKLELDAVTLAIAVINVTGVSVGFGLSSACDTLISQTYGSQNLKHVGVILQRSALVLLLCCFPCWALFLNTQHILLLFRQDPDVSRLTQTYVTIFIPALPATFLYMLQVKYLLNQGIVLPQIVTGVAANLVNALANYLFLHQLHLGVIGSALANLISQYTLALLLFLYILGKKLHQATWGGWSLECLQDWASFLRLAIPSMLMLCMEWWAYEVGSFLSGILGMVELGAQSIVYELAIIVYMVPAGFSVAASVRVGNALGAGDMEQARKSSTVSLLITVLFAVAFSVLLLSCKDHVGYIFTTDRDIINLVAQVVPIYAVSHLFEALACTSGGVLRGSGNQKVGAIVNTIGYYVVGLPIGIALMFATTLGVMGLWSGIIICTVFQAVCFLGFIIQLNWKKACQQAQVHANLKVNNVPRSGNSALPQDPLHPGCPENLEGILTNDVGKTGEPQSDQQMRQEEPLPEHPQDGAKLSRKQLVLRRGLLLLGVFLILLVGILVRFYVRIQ
- assay.summary: in vitro
- stated.conditions: HEK293 cells expressing MATE1
attribute.measured: uptake ratio at 1 min, 2.5 µM

{"columns": ["molecule", "attribute.measured", "result"],
 "data": [
  ["CNC(C)Cc1ccc(OC)cc1 (stereo not drawn)", "uptake ratio at 1 min, 2.5 µM", "< 2"],
  ["Cn1nnc2c(C(N)=O)ncn2c1=O [TEMOZOLOMIDE]", "uptake ratio at 1 min, 2.5 µM", "< 2"],
  ["O=C(NCCNCC(O)COc1ccc(O)cc1)N1CCOCC1 (stereo not drawn)", "uptake ratio at 1 min, 2.5 µM", "> 2"],
  ["O=C(O[C@H]1C[C@H]2CC[C@@H](C1)[N+]21CCCC1)C(O)(c1ccccc1)c1ccccc1", "uptake ratio at 1 min, 2.5 µM", "> 2"]
]}

# return uptake ratio at 1 min, 2.5 µM for each item in the list
1. NCCCC(=O)O
2. Oc1ccc(CC2NCCc3cc(O)c(O)cc32)cc1 (stereo not drawn)
3. CC[N+](C)(CC)CCOC(=O)C(O)(c1ccccc1)C1CCCCC1 (stereo not drawn)
4. CNCCc1c[nH]c2ccc(O)cc12

output:
["< 2", "> 2", "> 2", "> 2"]

# return uptake ratio at 1 min, 2.5 µM for each item in the list
1. COc1cc2c(cc1OC)-c1c(C)c3ccc(OC)c(OC)c3c[n+]1CC2 [DEHYDROCORYDALINE]
2. Cc1ncc(C[n+]2csc(CCOP(=O)(O)O)c2C)c(N)n1
3. C[C@@H]1Cc2c(Cl)cc(C(=O)N[C@@H](Cc3ccccc3)C(=O)O)c(O)c2C(=O)O1 [3R14S-OCHRATOXIN A]
4. COC(=O)CCc1ccc(OCC(O)CNC(C)C)cc1 (stereo not drawn)
5. COc1ccc(CCN)cc1
6. CCN(CC)C(=O)Nc1ccc(OCC(O)CNC(C)(C)C)c(C(C)=O)c1 (stereo not drawn)
7. CC[C@@H]1C(=O)OC[C@@H]1Cc1cncn1C

output:
> 2
< 2
> 2
< 2
< 2
> 2
< 2

# return uptake ratio at 1 min, 2.5 µM for each item in the list
1. C[N+]1(CCC(C(N)=O)(c2ccccc2)c2ccccc2)CCCCC1
2. CC[N+](C)(C)c1cccc(O)c1
3. CN1CCC[C@@H]1Cc1c[nH]c2ccc(CCS(=O)(=O)c3ccccc3)cc12
4. COc1cc(C(O)CN)ccc1O (stereo not drawn)

output:
1. > 2
2. > 2
3. < 2
4. < 2

# return uptake ratio at 1 min, 2.5 µM for each item in the list
1. OCCN1CCN(CCCN2c3ccccc3Sc3ccc(C(F)(F)F)cc32)CC1
2. C[N+](C)(C)C[C@H](O)CC(=O)[O-]

output:
1: < 2; 2: < 2

# return uptake ratio at 1 min, 2.5 µM for each item in the list
1. COc1ccc2[nH]c3c(c2c1)CCNC3
2. CNCc1ccc(CSCCN/C(=C/[N+](=O)[O-])NC)o1

output:
["< 2", "> 2"]

* * *

- system: MATE2-K (Homo sapiens, UniProt Q86VL8)
- Sequence (Q86VL8 whole entry): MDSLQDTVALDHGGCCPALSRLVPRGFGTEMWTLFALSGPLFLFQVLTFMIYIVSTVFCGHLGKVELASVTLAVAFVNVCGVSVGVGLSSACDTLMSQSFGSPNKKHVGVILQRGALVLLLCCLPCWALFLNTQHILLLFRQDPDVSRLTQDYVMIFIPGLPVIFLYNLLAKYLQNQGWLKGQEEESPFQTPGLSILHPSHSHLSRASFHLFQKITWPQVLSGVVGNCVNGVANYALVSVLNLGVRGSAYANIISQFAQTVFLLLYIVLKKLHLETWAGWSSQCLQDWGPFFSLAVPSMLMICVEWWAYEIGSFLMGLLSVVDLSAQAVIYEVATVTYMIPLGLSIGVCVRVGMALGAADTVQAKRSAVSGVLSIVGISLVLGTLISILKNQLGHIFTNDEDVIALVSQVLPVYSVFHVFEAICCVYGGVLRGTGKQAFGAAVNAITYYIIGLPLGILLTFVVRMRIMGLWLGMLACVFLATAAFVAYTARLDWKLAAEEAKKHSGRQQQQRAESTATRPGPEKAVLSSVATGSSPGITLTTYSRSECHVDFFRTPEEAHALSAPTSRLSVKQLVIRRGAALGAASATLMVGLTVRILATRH
- assay.summary: in vitro
- stated.conditions: hek293
attribute.measured: uptake ratio at 1 min, 2.5 µM

Field: example entries. Status: answers known.
{"columns": ["molecule", "uptake ratio at 1 min, 2.5 µM"],
 "data": [
  ["C[N+](C)(C)CCO [CHOLINE]", "< 2"],
  ["CNCCc1ccccn1 [BETAHISTINE]", "< 2"]
]}

# return uptake ratio at 1 min, 2.5 µM for each item in the list
1. CN(C)CCCN1c2ccccc2Sc2ccc(Cl)cc21 [CHLORPROMAZINE]
2. C[C@H](NCCc1ccc(O)cc1)[C@H](O)c1ccc(O)cc1

output:
1. < 2
2. > 2

# return uptake ratio at 1 min, 2.5 µM for each item in the list
1. CNC[C@H](O)c1cccc(O)c1 [PHENYLEPHRINE]
2. Cc1ncc(C[n+]2csc(CCO)c2C)c(N)n1 [THIAMINE ION]
3. CNC(=C[N+](=O)[O-])NCCSCc1ccc(CN(C)C)o1 [RANITIDINE]
4. CC(C)NCC(O)COc1ccc(CCOCC2CC2)cc1 (centres undefined) [BETAXOLOL]
5. CN/C(=N/CCSCc1nc[nH]c1C)NC#N [CIMETIDINE]
6. CCCCNC(=N)NC(=N)N [BUFORMIN]
7. CC(=O)OC(C)C[N+](C)(C)C (centres undefined) [METHACHOLINE]
8. NCCc1ccc(O)cc1 [TYRAMINE]

output:
1: > 2; 2: > 2; 3: > 2; 4: < 2; 5: > 2; 6: > 2; 7: > 2; 8: < 2

# return uptake ratio at 1 min, 2.5 µM for each item in the list
1. O=C1CCc2ccc(OCCCCN3CCN(c4cccc(Cl)c4Cl)CC3)cc2N1 [ARIPIPRAZOLE]
2. CNC[C@H](O)c1ccc(O)c(O)c1 [EPINEPHRINE]
3. O=C(O)c1cccnc1 [NIACIN]
4. [H]/N=C(/N)N/C(=N/[H])NCCc1ccccc1 [PHENFORMIN]

output:
1. < 2
2. > 2
3. < 2
4. > 2

# return uptake ratio at 1 min, 2.5 µM for each item in the list
1. CN[C@@H]1CCc2[nH]c3ccc(C(N)=O)cc3c2C1 [FROVATRIPTAN]
2. NCCc1c[nH]cn1 [HISTAMINE]
3. Cc1cccc(C)c1OCC(C)N (racemic) [MEXILETINE]
4. O=C1CC2(CCCC2)CC(=O)N1CCCCN1CCN(c2ncccn2)CC1 [BUSPIRONE]
5. CCCC(=O)Nc1ccc(OCC(O)CNC(C)C)c(C(C)=O)c1 (centres undefined) [ACEBUTOLOL]
6. NCCCCN [PUTRESCINE]
7. NC(N)=Nc1nc(CSCCC(N)=NS(N)(=O)=O)cs1 [FAMOTIDINE]
8. Cc1ncc(CO)c(CO)c1O [PYRIDOXINE]

output:
> 2
< 2
< 2
< 2
> 2
< 2
> 2
< 2

# return uptake ratio at 1 min, 2.5 µM for each item in the list
1. Cc1ncc(CO)c(CN)c1O [PYRIDOXAMINE]
2. CC(=O)Nc1ccc(OCC(O)CNC(C)C)cc1 (centres undefined) [PRACTOLOL]
3. NCCCNCCCCNCCCN [SPERMINE]
4. O=c1cccc2n1C[C@@H]1CNC[C@H]2C1 [CYTISINICLINE]
5. NCCc1ccc(O)c(O)c1 [DOPAMINE]

output:
1: < 2; 2: > 2; 3: < 2; 4: < 2; 5: > 2

Where these numbers come from: ChEMBL document CHEMBL6182944
